- Procedure Details: chemical recovery from spiked human plasma; higher = better extraction
- Conditions Used: pooled human plasma; extraction method: SPE only (HLB 96-well), PES comparison experiment

Compound	chemical recovery [%]
Cc1cccc(C)c1NC(=O)CS(=O)(=O)O	38.3
CCOC1Oc2ccc(OS(C)(=O)=O)cc2C1(C)C (stereo not given) [Ethofumesate]	52.8
O=C(Nc1ccccc1-c1ccc(Cl)cc1)c1cccnc1Cl [Boscalid]	48.2
CCN(CCCCOC(=O)c1ccc(OC)c(OC)c1)C(C)Cc1ccc(OC)cc1 (stereo not given) [Mebeverine]	38.1
CC[C@H]1OC(=O)[C@H](C)[C@@H](O[C@H]2C[C@@](C)(OC)[C@@H](O)[C@H](C)O2)[C@H](C)[C@@H](O[C@@H]2O[C@H](C)C[C@H](N(C)C)[C@H]2O)[C@](C)(O)C[C@@H](C)/C(=N\OCOCCOC)[C@H](C)[C@@H](O)[C@]1(C)O [Roxithromycin]	36.2

* * *

- Procedure Details: chemical recovery into PDMS from spiked human plasma; higher = better extraction
- Conditions Used: pooled human plasma; extraction method: PES with PDMS; equilibration time (d): 6

Compound	Output Unit	chemical recovery into PDMS
C=CC[C@@H]1/C=C(\C)C[C@H](C)C[C@H](OC)[C@H]2O[C@@](O)(C(=O)C(=O)N3CCCC[C@H]3C(=O)O[C@H](/C(C)=C/[C@@H]3CC[C@@H](O)[C@H](OC)C3)[C@H](C)[C@@H](O)CC1=O)[C@H](C)C[C@@H]2OC [Tacrolimus]	%	30.5
Nc1ccc(Cl)cc1 [4-Chloroaniline]	%	5.47
Cc1ccc(-c2cc(C(F)(F)F)nn2-c2ccc(S(N)(=O)=O)cc2)cc1 [Celecoxib]	%	8.5
Clc1cccc(Cl)c1NC1=NCCN1 [Clonidine]	%	6.38
O=C1CC2(CCCCC2)CN1 [Gabapentin-Lactam]	%	31.2

* * *

- Procedure Details: chemical recovery from spiked human plasma; higher = better extraction
- Conditions Used: pooled human plasma; extraction method: SPE only (HLB 96-well)
Quantity Name: chemical recovery (%)

> print(dat)
                                    molecule      quantity.name  assay.value
 1  Cc1ccc(-c2c(Cl)nc(C#N)n2S(=O)(=O)N(C)C)cc1 [Cyazofamid]  chemical recovery           41
 2  CCCC[N+](CCCC)(CCCC)CCCC [Tetrabutylammonium]  chemical recovery           43
 3  CC(C)N(C(=O)SCC(Cl)=C(Cl)Cl)C(C)C [Triallate]  chemical recovery         16.3
 4  CN1CCN(C)C1=O [1,3-Dimethyl-2-imidazolidinone]  chemical recovery         7.04
 5  Oc1c(Cl)cc(Cl)c2cccnc12 [5,7-Dichloro-8-hydroxyquinoline]  chemical recovery         21.3
 6  NC(=O)c1c(Cl)cccc1Cl [2,6-Dichlorobenzamide]  chemical recovery         63.3
 7    Cc1cc(C)nc(Nc2ccccc2)n1 [Pyrimethanil]  chemical recovery         31.2
 8  CCCCCCCCCCCC(=O)NCCO [N-Lauroylethanolamine]  chemical recovery         47.5
 9     c1ccc(NNc2ccccc2)cc1 [Hydrazobenzene]  chemical recovery         2.13
10  Cc1ccc(S(=O)(=O)O)c(C)c1 [m-Xylene-4-sulfonic acid]  chemical recovery         46.9
11  Cc1c(Br)c(Br)c(C)c(Br)c1Br [2,3,5,6-Tetrabromo-p-xylene]  chemical recovery           17
12  CC(C)(C)c1cc(-n2nc3ccc(Cl)cc3n2)c(O)c(C(C)(C)C)c1 [UV-327]  chemical recovery         1.82
13  Cc1ccc2ccc3cccc4ccc1c2c34 [1-Methylpyrene]  chemical recovery         3.46
14  COc1cnc(OC)n2nc(NS(=O)(=O)c3c(OCC(F)F)cccc3C(F)(F)F)nc12 [Penoxsulam]  chemical recovery         42.2
15  O=C(O)C(F)(F)C(F)(F)C(F)(F)C(F)(F)C(F)(F)C(F)(F)C(F)(F)C(F)(F)F [Perfluorononanoic-acid]  chemical recovery         8.32
16  Clc1cc(Cl)c(-c2c(Cl)ccc(Cl)c2Cl)cc1Cl [PCB149]  chemical recovery         4.51
17  CC1=NNC(=O)N(/N=C/c2cccnc2)C1 [Pymetrozine]  chemical recovery         13.5
18  CCc1cccc(C)c1N(C(=O)CS(=O)(=O)O)C(C)COC (stereo not given) [Metolachlor ESA]  chemical recovery         33.2
19  CNCC[C@H](Oc1cccc2ccccc12)c1cccs1 [Duloxetine]  chemical recovery         34.8
20  CCc1cccc(C)c1N(C(=O)CCl)C(C)COC (stereo not given) [Metolachlor]  chemical recovery         38.1
